Quick list: log10 IC50 per entry.
target-under-test: recombinant human Bcl-2 D103Y protein (Homo sapiens (Human), UniProt P10415, D103Y)
Sequence (P10415 whole entry D103Y): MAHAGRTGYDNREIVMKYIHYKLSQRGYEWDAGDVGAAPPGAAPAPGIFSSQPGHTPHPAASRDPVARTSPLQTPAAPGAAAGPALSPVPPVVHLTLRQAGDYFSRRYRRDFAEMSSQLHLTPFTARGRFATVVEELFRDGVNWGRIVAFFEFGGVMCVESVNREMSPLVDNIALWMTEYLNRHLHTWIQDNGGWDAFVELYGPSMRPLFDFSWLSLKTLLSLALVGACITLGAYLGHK
assay-text: Bcl-2-D103Y Biochemical Assay (TR-FRET)
assay-context: TR-FRET, FITC labeled Bak peptide
A value of 2 here means IC50 of 100 in nM, since values are log10.

CC(C)c1ccccc1C1CN(Cc2cccc3c2OCO3)CCN1C1CC2(CCN(c3ccc(C(=O)NS(=O)(=O)c4ccc(NC[C@H]5CC[C@](C)(O)CC5)c([N+](=O)[O-])c4)c(Oc4cnc5[nH]ccc5c4)c3)CC2)C1 (stereo partly shown): -0.24
COc1cc(CN2CCN(C3CC4(C3)CN(c3ccc(C(=O)NS(=O)(=O)c5ccc(NC[C@H]6CC[C@](C)(O)CC6)c([N+](=O)[O-])c5)c(Oc5cnc6[nH]cc(F)c6c5)c3)C4)[C@H](c3ccccc3C(C)C)C2)ccc1C: -0.51
CC(C)c1ccccc1C1CN(Cc2ccc(F)cc2F)CCN1C1CC2(CCN(c3ccc(C(=O)NS(=O)(=O)c4ccc(NC[C@H]5CC[C@](C)(O)CC5)c([N+](=O)[O-])c4)c(Oc4cnc5[nH]ccc5c4)c3)CC2)C1 (stereo partly shown): 0.08

Prompt: Requested read-out: log10 IC50. Entry: COc1ccc(CN2CCN(C3CC4(C3)CN(c3ccc(C(=O)NS(=O)(=O)c5ccc(NC[C@H]6CC[C@](C)(O)CC6)c([N+](=O)[O-])c5)c(Oc5cnc6[nH]cc(F)c6c5)c3)C4)[C@H](c3ccccc3C(C)C)C2)cc1OC [Example 141a]
Completion: -1.14

Prompt: Thanks! And COc1cc(CN2CCN(C3CC4(CCN(c5ccc(C(=O)NS(=O)(=O)c6ccc(NC[C@H]7CC[C@](C)(O)CC7)c([N+](=O)[O-])c6)c(Oc6cnc7[nH]ccc7c6)c5)CC4)C3)C(c3ccccc3C(C)C)C2)cc(OC)c1OC (stereo partly shown) ?
Completion: -0.66

Prompt: Thanks! And CC(C)c1ccccc1C1CN(Cc2cnn(C3CC3)c2)CCN1C1CC2(CCN(c3ccc(C(=O)NS(=O)(=O)c4ccc(NC[C@H]5CC[C@](C)(O)CC5)c([N+](=O)[O-])c4)c(Oc4cnc5[nH]ccc5c4)c3)CC2)C1 (stereo partly shown) ?
Completion: -1.00

Prompt: Thanks! And "COc1cc(CN2CCN(C3CC4(CCN(c5ccc(C(=O)NS(=O)(=O)c6ccc(NC[C@H]7CC[C@](C)(O)CC7)c([N+](=O)[O-])c6)c(Oc6cnc7[nH]ccc7c6)c5)CC4)C3)[C@H](c3ccccc3C(C)C)C2)cc2c1OCCC2" ?
Completion: -1.16

Prompt: Thanks! And "COc1cc(CN2CCN(C3CC4(C3)CN(c3ccc(C(=O)NS(=O)(=O)c5ccc(NC[C@H]6CC[C@](C)(O)CC6)c([N+](=O)[O-])c5)c(Oc5cnc6[nH]cc(F)c6c5)c3)C4)[C@H](c3ccccc3C(C)C)C2)cc2c1OC(C)(C)CC2" ?
Completion: -0.41

Prompt: Thanks! And "COc1ccc(CN2CCN(C3CC4(CCN(c5ccc(C(=O)NS(=O)(=O)c6ccc(NC[C@H]7CC[C@](C)(O)CC7)c([N+](=O)[O-])c6)c(Oc6cnc7[nH]cc(Cl)c7c6)c5)CC4)C3)[C@H](c3ccccc3C(C)C)C2)cc1OC" ?
Completion: -0.85
